assay: Antioxidant activity assessed as trolox equivalent of DPPH radical scavenging activity; type: functional
The reader will find reported Activity values listed item by item below.

[
  {
    "chemical.smiles": "O=C(N/N=C/c1ccccc1O)c1cc2ccccc2[nH]1",
    "Activity / µmol/g": 8.71
  },
  {
    "chemical.smiles": "O=C(N/N=C/c1cc(O)ccc1O)c1cc2ccccc2[nH]1",
    "Activity / µmol/g": 9960
  },
  {
    "chemical.smiles": "O=C(N/N=C/c1ccc(O)c(O)c1O)c1cc2ccccc2[nH]1",
    "Activity / µmol/g": 12800
  },
  {
    "chemical.smiles": "COc1cccc(/C=N/NC(=O)c2cc3ccccc3[nH]2)c1O",
    "Activity / µmol/g": 38.7
  },
  {
    "chemical.smiles": "O=C(N/N=C/c1ccc(O)cc1O)c1cc2ccccc2[nH]1",
    "Activity / µmol/g": 2000
  },
  {
    "chemical.smiles": "O=C(N/N=C/c1cc(Br)ccc1O)c1cc2ccccc2[nH]1",
    "Activity / µmol/g": 14.2
  },
  {
    "chemical.smiles": "O=C(N/N=C/c1c(O)cc(O)cc1O)c1cc2ccccc2[nH]1",
    "Activity / µmol/g": 4190
  }
]
